# target-system: T1, orthogonal hCD122 receptor (hoRb), hCD122 with H133D and Y134F (human, UniProt P14784 27-550)
# T1 sequence: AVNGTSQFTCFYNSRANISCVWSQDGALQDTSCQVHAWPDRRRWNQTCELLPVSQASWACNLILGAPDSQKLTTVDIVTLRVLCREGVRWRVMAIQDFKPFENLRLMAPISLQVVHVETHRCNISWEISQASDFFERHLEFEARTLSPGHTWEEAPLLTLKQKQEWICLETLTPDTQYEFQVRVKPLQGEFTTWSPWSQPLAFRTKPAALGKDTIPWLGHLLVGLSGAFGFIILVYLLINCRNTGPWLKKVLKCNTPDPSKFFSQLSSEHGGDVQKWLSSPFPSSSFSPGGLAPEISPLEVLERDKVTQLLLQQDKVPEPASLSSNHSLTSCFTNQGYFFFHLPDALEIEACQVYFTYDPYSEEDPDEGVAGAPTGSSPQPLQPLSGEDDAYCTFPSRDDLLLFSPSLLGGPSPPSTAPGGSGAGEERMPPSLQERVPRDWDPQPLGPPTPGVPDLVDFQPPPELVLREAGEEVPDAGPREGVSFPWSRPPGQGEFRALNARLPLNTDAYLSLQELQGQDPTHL
# method: cell-based or functional assay
readout-name: NKL Ortho Proliferation Signal 1:10

P = T3Q, SQVLKA (ligand) APQSSSTKKTQLQLSQLLVLLKAILNGINNYKNPKLTRMLTFKFYMPKKATELKHLQCLEEELKPLEEVLNLAQSKNFHLRPRDLISNINVIVLELKGSETTFMCEYADETATIVEFLNRWITFCQSIISTLT
Q = SQVLMA (ligand) APTSSSTKKTQLQLSQLLVLLMAILNGINNYKNPKLTRMLTFKFYMPKKATELKHLQCLEEELKPLEEVLNLAQSKNFHLRPRDLISNINVIVLELKGSETTFMCEYADETATIVEFLNRWITFCQSIISTLT
R = SQVLKH (ligand) APTSSSTKKTQLQLSQLLVLLKHILNGINNYKNPKLTRMLTFKFYMPKKATELKHLQCLEEELKPLEEVLNLAQSKNFHLRPRDLISNINVIVLELKGSETTFMCEYADETATIVEFLNRWITFCQSIISTLT
S = Δ88N, SQVLKA (ligand) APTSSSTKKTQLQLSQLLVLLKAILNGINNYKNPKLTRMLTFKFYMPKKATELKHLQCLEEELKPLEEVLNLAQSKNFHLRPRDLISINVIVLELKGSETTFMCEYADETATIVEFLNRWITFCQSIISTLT
[Q] Sort the items above by NKL Ortho Proliferation Signal 1:10, starting with the smallest value. Answer with the labels in sequence, matching the requested order.
[A] S, Q, R, P
